I'd be grateful if you could share measured MIC for these entries.
Test system: Staphylococcus aureus
test_description: In vitro minimum inhibitory activity against Staphylococcus aureus WCUH29 strain
Assay type: functional
Give bare numbers, in µg/mL.

In the examples that follow, each entry is paired with its recorded MIC.
molecule	recorded_number
Oc1cc(NCCCNC2CCNc3c(Br)cc(Br)cc32)nc2ccccc12 (stereo not given)	0.125
C/C(=C\C(=O)OCCCCCCCCC(=O)O)C[C@@H]1OC[C@H](C[C@@H]2O[C@H]2[C@@H](C)[C@H](C)O)[C@@H](O)[C@H]1O	0.25
CCc1cc(I)c2c(c1)C(NCCCNc1cc(=O)c3ccccc3[nH]1)CCN2 (stereo not given)	0.25

Next up:
# MIC lookup, item "O=c1cc(NCCCNCc2ccc(Cl)c(Cl)c2)[nH]c2ccccc12" 8
